- Experimental System: recombinant human GAA (rhGAA, Myozyme) (Homo sapiens)
- Construct: purchased Genzyme
- Assay Protocol: competitive FluoPol-ABPP assay on rhGAA with TAMRA-ABP II;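 note: fluorescence polarization read at 540 nm excitation and 590 nm emission, background-corrected, normalized to uninhibited probe labelling as 100% and excess cyclosulfate as 0%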
- Format: biochemical
- Details: library screen, 5 μM inhibitor, 25 nM ABP II
Observable: GAA FP% (residual FP-signal) (%)

Examples with answers:
>>> readout_value("Cc1ccc(-c2ccc(COCCCCCN3C[C@H](O)[C@@H](O)[C@H](O)[C@H]3CO)cc2)cc1")
0.5
>>> readout_value("N#Cc1cccc(-c2ccc(COCCCCCN3C[C@H](O)[C@@H](O)[C@H](O)[C@H]3CO)cc2)c1")
2.5
>>> readout_value("C[C@H](OCCCCCN1C[C@H](O)[C@@H](O)[C@H](O)[C@H]1CO)c1ccc(-c2ccccc2)cc1")
0.4

A. OC[C@@H]1[C@@H](O)[C@H](O)[C@@H](O)CN1CCCCCOCC12CC3CC(C1)CC(COCCCCCN1C[C@H](O)[C@@H](O)[C@H](O)[C@H]1CO)(C3)C2
B. OC[C@@H]1[C@@H](O)[C@H](O)[C@@H](O)CN1CCCC(F)(F)COCc1ccc(-c2ccccc2)cc1
Q) Just curious, which one has the larger GAA FP% (residual FP-signal) reading, A or B ? Mark your selection by writing its label.
A) A

1. OC[C@@H]1[C@@H](O)[C@H](O)[C@@H](O)CN1CCCCCOCc1ccccc1
2. OC[C@@H]1[C@@H](O)[C@H](O)[C@@H](O)CN1CCCCCOCC1CCCCC1
Q) For the pair 1 and 2 , which member has the lower GAA FP% (residual FP-signal) number? Mark your selection by writing its label.
A) 2
(2: 9.3%, 1: 20%)
